src = ChEMBL document CHEMBL5149991

target: Histamine H2 receptor (Cavia porcellus, UniProt P47747); assay: Agonist activity at guinea pig histamine H2 receptor stably transfected in HEK293T cells co-expressing NlucN-mGs/gpH2R-NlucC by mini-G protein recruitment assay; format: functional, cell-based
Sequence (P47747 whole entry): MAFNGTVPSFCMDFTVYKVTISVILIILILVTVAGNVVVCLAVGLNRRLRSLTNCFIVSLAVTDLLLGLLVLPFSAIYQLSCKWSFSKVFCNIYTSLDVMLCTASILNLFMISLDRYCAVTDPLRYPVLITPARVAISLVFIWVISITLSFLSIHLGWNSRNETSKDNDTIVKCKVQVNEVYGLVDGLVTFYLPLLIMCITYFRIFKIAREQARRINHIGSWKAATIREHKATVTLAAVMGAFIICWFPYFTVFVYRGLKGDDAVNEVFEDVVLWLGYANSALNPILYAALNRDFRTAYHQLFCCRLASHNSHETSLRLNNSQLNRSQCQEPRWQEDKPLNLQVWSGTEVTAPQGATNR
Reported values of pEC50 for individual entries
Please express pEC50 as -log10 of the molar concentration.

>>> measured_value("Cc1ccc(CC(C)CNC(=O)/N=C(\\N)NCCCc2nnc(N)s2)cc1.O=C(O)C(F)(F)F.O=C(O)C(F)(F)F (stereo not drawn)")
7.83
>>> measured_value("C[C@@H](NC(=O)/N=C(\\N)NCCCc1ncn[nH]1)c1ccccc1")
7.79

Here is the next item to consider.
Query (molecule): CC(NC(=O)/N=C(\N)NCCCc1nnc(N)s1)c1cccc(F)c1 (stereo not drawn) ; field requested: pEC50
8.16

###

molecular target: Histamine H3 receptor (Homo sapiens); experiment: Displacement of [3H]UR-PI294 from human histamine H3 receptor stably expressed in baculovirus infected Sf9 cell membrane co-expressing G-alphai2 and G-beta1gamma2 incubated for 60 mins by scintillation counting analysis; assay type: cell membranes
Sequence (Q9Y5N1 whole entry): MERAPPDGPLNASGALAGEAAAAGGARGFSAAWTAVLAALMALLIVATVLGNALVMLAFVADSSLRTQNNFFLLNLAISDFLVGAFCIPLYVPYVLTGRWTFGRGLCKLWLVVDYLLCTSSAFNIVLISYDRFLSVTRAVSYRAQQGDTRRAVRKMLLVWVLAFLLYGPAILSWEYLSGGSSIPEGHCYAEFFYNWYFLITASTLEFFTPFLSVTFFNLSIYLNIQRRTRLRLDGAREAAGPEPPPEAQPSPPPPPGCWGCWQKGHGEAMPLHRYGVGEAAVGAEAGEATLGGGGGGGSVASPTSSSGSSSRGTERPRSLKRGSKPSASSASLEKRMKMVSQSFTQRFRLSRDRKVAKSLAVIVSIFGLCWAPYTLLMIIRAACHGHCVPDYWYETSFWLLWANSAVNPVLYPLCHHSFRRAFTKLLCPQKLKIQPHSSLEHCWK
measurement-kind: Ki

>>> measured_value("Cc1nc(N)oc1CCCN/C(N)=N/C(=O)NCc1ccccc1")
"> 10 µM"

Entry `CCCCCNC(=O)/N=C(\N)NCCCc1nnc(N)s1.O=C(O)C(F)(F)F.O=C(O)C(F)(F)F` : reported Ki = ?
> 10 µM

Given the compound `N/C(=N\C(=O)NCc1ccccc1)NCCCc1cnc(N)s1` , what is its reported Ki?
> 10 µM
